protocol-notes: NCI Yeast Anticancer Drug Screen. Data for the mec2-1 strain (AID 157)
condition-description: S. cerevisiae mec2-1 strain, at 50.0 µM, active compounds read high
This is part of a sample that, as a whole, favours compounds with a hit. Of some 79,000 tested, about 15% had one in any assay.
quantity-measured: growth inhibition (%)
Unit % implied. Number only.

If you can, please state the reported growth inhibition value of COCC(=O)Oc1ccc[nH]c1=O .
2.6

// returns reported growth inhibition for input CCOC(=O)c1ccc(N=NC2Sc3nc4ccccc4n3C2=O)cc1 (stereo unspecified)
-2.4

Endpoint output: growth inhibition of C=C(C)CN(C#N)CC(=C)C . Value?
10.6

Given the entry COc1cccc2c1C(=N)c1c(O)c3c(c(O)c1C2=O)C[C@@](O)(C(=O)CO)C[C@@H]3OC1CC(N)C(O)C(C)O1 (stereo partly specified) , report its measured growth inhibition.
23.2

Value lookup for growth inhibition; key = CCOC(=O)C1=C(c2ccccc2)OC(N)=C(C#N)C1c1ccccc1 (stereo unspecified)
-8.4

# lookup: growth inhibition of CC(C)CCN(C=O)c1ccccc1
0.7

----------
protocol-notes: NCI Yeast Anticancer Drug Screen. Data for the rad50 strain (AID 155);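 note: 0% = growth of vehicle-only cultures of the same strain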
condition-description: S. cerevisiae rad50 strain growth inhibition; at 50.0 µM; active compounds read high
Compounds without any hit were thinned out: in the full panel of roughly 79,000, 15% have a hit.
Classify as follows. Reported growth inhibition greater than or equal to -10%: yes. Reported growth inhibition below: no.

Evaluate O=C(CC(=O)c1ccc(-c2ccc(C(=O)CC(=O)c3ccccc3)cc2)cc1)c1ccccc1 : growth inhibition at minimum -10%?
no

Given C=C(C)CC1(C)C(=O)CCC1O (configuration not stated) , state whether its growth inhibition is at least -10%.
no

Could you tell me if the measured growth inhibition of O=c1c2cnc3c4cccnc4ccc3c2[nH]n1-c1ccccc1 reaches -10% or more?
no

Is reported growth inhibition greater than or equal to -10% here: O=C1c2ccccc2C(=O)N1CCCO
yes

// inclusive: growth inhibition at least -10%? input: N#Cc1cccc2c(S(=O)(=O)O)cccc12
no

Is the recorded value of growth inhibition equal to or greater than -10% for this compound? Cc1ccccc1N=Nc1c(O)n(-c2ccccc2)c(=S)n(-c2ccccc2)c1=O
yes

Does N=C(N)SCCC(=O)O have a reported growth inhibition of at least -10%?
no

Test whether the compound O=[N+]([O-])c1ccc(-c2ccccc2)c([N+](=O)[O-])c1 records growth inhibition of -10% or higher.
yes

Does the reported growth inhibition for O=C(O)c1ccccc1P(=O)(O)c1ccccc1 fall at or above the -10% mark?
no

Is reported growth inhibition greater than or equal to -10% here: CN(CCc1ccccn1)c1ccc2c(c1)C(=O)c1ccccc1-2
yes

Identify whether the reported growth inhibition of the following compound is -10% or greater: C/C=C(\CC)C(C#N)(CC)C(=O)OCC (configuration not stated)
yes

Assess whether reported growth inhibition for O=C(c1cccs1)c1cccs1 sits at -10% or higher.
yes

----------
Record form. Attribute: growth inhibition. Fill in for each entry.
protocol-notes: NCI Yeast Anticancer Drug Screen. Data for the mec2-1 strain (AID 157)
condition-description: S. cerevisiae mec2-1 strain, at 50.0 µM, active compounds read high
This is part of a sample that, as a whole, favours compounds with a hit. Of some 79,000 tested, about 15% had one in any assay. Where a SMILES comes first, the peptide text is derived from it. [ ]: non-standard residue; d: D form. The star is where a group is joined. ξ: configuration not given here. dThr(3ξ) = CC(O)[C@@H](N)C(=O)O; dNMeL = CN[C@H](CC(C)C)C(=O)O; OBn = c1ccc(CO*)cc1; ξLac = CC(O)C(=O)O
Please give a number only; it is taken to be in %.

Return reported growth inhibition; argument: CC(=O)OC(C)[C@@H](NC(=O)[C@@H](CC(C)C)N(C)C(=O)[C@@H]1CCCN1C(=O)C(C)O)C(=O)OCc1ccccc1 (stereo not given in full) (H-[ξLac]P[dNMeL][dThr(3ξ)](Ac)-OBn)
24.4

Look at this molecule and give its reported growth inhibition. C/C(=N/NC(N)=O)C1=CCCC1
-2.05

Requested field: growth inhibition. Item: CCCCCCCCCCCCCCCCCCNC(=O)c1c(Br)c(Br)cc(Br)c1C(=O)O
8.55

Would you mind telling me what growth inhibition value was observed for CC1(C)CC(=O)c2c([nH]c(=S)c(C#N)c2-c2ccc(Br)cc2)C1 ?
-13.1

Which growth inhibition value belongs to N#CCCN(CCC#N)c1ccc(/C=C2\N=C(c3cc([N+](=O)[O-])ccc3Cl)N(NC(=O)CC(=O)Nc3ccccc3Cl)C2=O)cc1 ?
-28.1

Could you tell me which growth inhibition is on file for CCN(CC)c1nc(NNS(=O)(=O)c2ccccc2)nc(N(CC)CC)n1 ?
-5.2

Consider the molecule shown here: CCOC(=O)C(C#N)C1=CC(=O)C(=O)c2ccc(OC)cc21 (stereo not given) What is its recorded growth inhibition?
11.3

Dear colleague, I am looking for the recorded growth inhibition of the following molecule: Cc1nc2ccccc2n1CCC(N)=O
-2.1

Which growth inhibition is listed for C(=C/c1nnc2ncccn12)/c1ccccc1 ?
-4.85

Entry under review: Nc1ccc2ccc(S(=O)(=O)O)cc2c1 . Reported growth inhibition?
-19.9

----------
protocol-notes: NCI Yeast Anticancer Drug Screen. Data for the bub3 strain (AID 167)
condition-description: S. cerevisiae bub3 mutant strain, at 50.0 µM, active compounds read high
About 79,000 compounds went through this panel and 15% of them were active in at least one assay; those are over-represented in the sample as a whole.
quantity-measured: growth inhibition (%)
The response must be a number in % with no trailing unit.

# lookup: growth inhibition of COc1ccc(OC)c(NC(=O)Nc2nccs2)c1
36.6

# get_value(readout='growth inhibition', item= CCCCCCCCCCCC(=O)N(C)CCS(=O)(=O)O )
-20.6

Bench note: what growth inhibition did O=C(COc1ccc(Cl)cc1C(=O)O)NCc1ccc([N+](=O)[O-])cc1 show?
-9.85

Would you kindly share the measured growth inhibition for CCN(CCOC(=O)Nc1ccc(Cl)cc1)C(=O)Nc1ccc(Cl)cc1 ?
-8.55

Record request: growth inhibition value, item OCc1ccc(Cl)cc1Cl
-51.1

Sample CCOC(=O)C1C(c2ccc(Cl)cc2Cl)NC(c2ccc(C)cc2)C(C(=O)OC)S1(=O)=O (configuration not stated) — what was its growth inhibition?
-5.1

Which growth inhibition value belongs to CNc1ccccc1C(=O)N/N=C/C1CCCCC1 ?
9.85

Looking for the measured growth inhibition of COc1cc(C(c2ccc3c(c2)OCO3)C2SCCCS2)cc(OC)c1OC (configuration not stated) , can you help?
-12

Which growth inhibition value is on record for CCCCSCC(N)C(=O)OC (configuration not stated) ?
3.75

For the molecule COc1ccc(N)c(OC)c1 , what growth inhibition is on record?
-39.6

For O=C(O)CCc1nc(-c2ccccc2-n2cccc2)no1 , what is its reported growth inhibition?
-15.4

Value lookup for growth inhibition; key = Clc1ccc(OCc2nnc3n2N=C(c2ccc(Br)cc2)CS3)cc1
-5

----------
protocol-notes: NCI Yeast Anticancer Drug Screen. Data for the bub3 strain (AID 167)
condition-description: S. cerevisiae bub3 mutant strain, at 50.0 µM, active compounds read high
The panel holds about 79,000 compounds, 15% with a hit somewhere; the sample as a whole holds those more often.
quantity-measured: growth inhibition (%)
Enter your answer as a number in %; do not include the unit.

Consider the molecule c1ccc(-c2ccc(-c3nnc(-c4ccc(-c5ccccc5)cc4)o3)cc2)cc1 and give its measured growth inhibition.
-2.6

Request the reported growth inhibition associated with O=C1CCSc2nc(-c3ccc4c(c3)OCO4)nn21
4.6

State the recorded growth inhibition for this entry: CC(=O)CC(=O)Nc1cc(C)c(NC(=O)CC(C)=O)cc1C
38.8

Can you look up the measured growth inhibition of CCOC(=O)/C(=C\c1ccccc1)C(=O)O for me?
-21.9

What value of growth inhibition has been recorded for this entry: COC(=O)[C@H]1C=C[C@H](OC2OC(COC(C)=O)C(OC(C)=O)C(OC(C)=O)C2OC(C)=O)n2c(=O)n(-c3ccccc3)c(=O)n21 (stereo not given in full)
15.8

What value of growth inhibition has been reported for the following molecule? [N-]=[N+]=NC[C@H]1OCO[C@H](CN=[N+]=[N-])[C@@H](OCCOCCCl)[C@@H]1OCCOCCCl
-28.8

Which growth inhibition is listed for COC(=O)[C@@H]1Cc2ccc(OC)c(c2)OCCC(=O)N1 ?
-13

Any idea what its growth inhibition is? The molecule is CCOP(=O)(OCCN(C)C)C(c1ccccc1)c1ccccc1 (stereo not given)
-9.75

Reported growth inhibition for COc1ccc(C(=O)C(C)CN2CCOCC2)cc1 (stereo not given) : what is it?
52.8

Consider the molecule COc1ccc2nc(NC(=O)C(=O)C(C)C(=O)c3ccc(Cl)cc3)sc2c1 (stereo not given) and give its measured growth inhibition.
-2.55
